From: PubChem BioAssay (NCI)

For each entry below, report its TGI value.
- Tested on: HOP-92 NSCLC
- assay-notes: NCI tumour cell line growth inhibition, 48 h
Answers are plain numbers, in µM.

>>> obs_value("COC(=O)C(C)NC(=O)c1ccccc1I(OS(=O)(=O)C(F)(F)F)c1ccccc1 (configuration not stated)")
21.6
>>> obs_value("Oc1c(CN2CCN(c3ccccc3)CC2)cc(Br)c2cccnc12")
30.8
>>> obs_value("COc1ccc(-c2nn(-c3ccc(NC(=O)Nc4ccc(Cl)c(C(F)(F)F)c4)cc3)cc2-c2ccncc2)cc1Cl")
3.84
>>> obs_value("O=C1C(Cl)=C(Nc2cccc(O)c2)C(=O)N1Cc1ccc(Cl)cc1Cl")
26.9

I'm hoping you can list TGI for every compound here, please.
1. CCCCCCCCCCCCCCCC1=NC(C)(C)CN1C(C)C
2. CCc1cccc(C)c1NC(=O)CC1C(=O)Nc2ccccc2S1(=O)=O (configuration not stated)
3. [N-]=[N+]=Nc1c([N+](=O)[O-])c(=O)n2c3c(cccc13)CCC2
4. OCCN1CCN(CC/C=C2/c3ccccc3Sc3ccc(Cl)cc32)CC1
5. O=C1C(Cl)=C(Nc2cccc(C(F)(F)F)c2)C(=O)N1Cc1ccc(Cl)cc1
6. CN1CCN(C2=CC(=O)c3c(O)ccc(O)c3C2=O)CC1
7. CCOC(=O)N1CCC(=C2c3ccc(Cl)cc3CCc3cccnc32)CC1

Result:
3.45
31.8
30
20.9
33.1
3.29
24.2

* * *

- Test system: SK-MEL-5 melanoma
- assay-notes: NCI tumour cell line growth inhibition, 48 h
For each entry below, report its TGI value.
Answers are plain numbers, in µM.

Study these solved cases before continuing.
>>> obs_value("O=C1C(=Cc2ccc(Cl)c(Cl)c2)C([O-])=C([P+](c2ccccc2)(c2ccccc2)c2ccccc2)C([O-])=C1[P+](c1ccccc1)(c1ccccc1)c1ccccc1")
5.24
>>> obs_value("O=c1ccc2nc(-c3ccccn3)nn(-c3ccccc3)c-2c1")
5.53
>>> obs_value("COc1ccc2nc3cc(Cl)ccc3c(NCCNc3c4ccc(Cl)cc4nc4ccc(OC)cc34)c2c1")
3.27

I'm hoping you can list TGI for every compound here, please.
1. Oc1ccc(N=Nc2ccccn2)c(O)c1
2. O=C1C(Cl)=C(Nc2cccc(C(F)(F)F)c2)C(=O)N1Cc1ccc(Cl)cc1

Result:
1. 24.2
2. 13.5

* * *

- System: NCI-H460 lung
- assay-notes: NCI tumour cell line growth inhibition, 48 h
For each entry below, report its TGI value.
Answers are plain numbers, in µM.

I'm hoping you can list TGI for every molecule here, please.
1. S=c1[nH]c2ccc(I)cc2c(=S)n1Cc1ccccc1
2. C=C1C(=O)OC2CC3(C)OC3CC/C(C)=C/C(OC(C)=O)C12 (stereo unspecified)
3. COc1c(B(O)O)cc(F)cc1-c1nc2ccc3[nH]ncc3c2c2c1CCCC2
4. Cc1cc(S(=O)(=O)/N=C(/NN)NNc2cccc(C(F)(F)F)n2)c(S)cc1Cl

Result:
1. 16.3
2. 31.6
3. 10.5
4. 72.8

* * *

- System: RXF 393 renal
- assay-notes: NCI tumour cell line growth inhibition, 48 h
For each entry below, report its TGI value.
Give bare numbers, in µM.

>>> obs_value("CC1(C)C(=O)/C(=C\\c2cccnc2)C[C@]2(C)[C@H]3CC[C@@H]4[C@@H](C(=O)/C=C/c5ccncc5)CC[C@@]4(C)[C@]3(C)CC[C@@H]12")
3.18
>>> obs_value("COc1ccc2nc3cc(Cl)ccc3c(NCCNc3c4ccc(Cl)cc4nc4ccc(OC)cc34)c2c1")
2.92
>>> obs_value("CN1CCN(C2=CC(=O)c3c(O)ccc(O)c3C2=O)CC1")
2.93
>>> obs_value("CCCCCCCCCCCCCCCC1=NC(C)(C)CN1C(C)C")
2.96
>>> obs_value("CC#Cc1nc(Nc2cc(C)[nH]n2)c2ccccc2n1")
4.96

I'm hoping you can list TGI for every compound here, please.
1. COc1ccc(Sc2ccccc2N)cc1
2. Brc1ccc2c(-c3csc(-c4c[nH]c5ccccc45)n3)c[nH]c2c1
3. CC(C)=CCCC(C)C1=C(O)C(=O)C(C)=CC1=O (stereo unspecified)
4. CC(=O)c1nc2ccccc2n1CC(=O)c1cccc(Cl)c1
5. COc1ccc(C(=O)/C=C/c2cc(O)c(O)cc2F)c(OC)c1
6. O=C1/C(=C/c2ccc(Br)cc2)CCC/C1=C\c1ccc(Br)cc1

Result:
75.6
38.8
17.8
0.88
26.7
18.9

I'm hoping you can list TGI for every compound here, please.
1. O=C1C(=Cc2ccc(Cl)c(Cl)c2)C([O-])=C([P+](c2ccccc2)(c2ccccc2)c2ccccc2)C([O-])=C1[P+](c1ccccc1)(c1ccccc1)c1ccccc1
2. S=c1[nH]c2ccc(I)cc2c(=S)n1Cc1ccccc1

Result:
[3.35, 9.21]

* * *

For each entry below, report its TGI value.
- Test system: NCI-H460 lung
- assay-notes: NCI tumour cell line growth inhibition, 48 h

>>> obs_value("N#CC1C=Cc2c(ccc3ccccc23)N1C(=O)c1ccccc1 (stereo unspecified)")
"7.56 µM"
>>> obs_value("CN(Cc1cc(Cl)c(Cl)cc1NC(=O)CN)[C@H]1CCCC[C@@H]1N1CCCC1")
"57.8 µM"
>>> obs_value("CCOC(=O)C(NC(=O)OC(C)(C)C)C(=O)OCC")
"> 100 µM"
>>> obs_value("CCOc1ccc2c(c1)c(=O)c1c(NCCN(CC)CC)ccc3nnn2c31")
"> 57.8 µM"
>>> obs_value("Nc1c(C(=O)Nc2cccc(Cl)c2Cl)sc2nc3c(cc12)C(=O)CCC3")
"> 100 µM"

Consider the additional compound presented here.
Request: Which TGI value belongs to CC1(C)N=C(c2ccccn2)C(c2ccccn2)=NC1(C)C ?
Result: > 100 µM

* * *

For each entry below, report its TGI value.
- System: TK-10 renal
- assay-notes: NCI tumour cell line growth inhibition, 48 h
Give bare numbers, in µM.

Study these solved cases before continuing.
>>> obs_value("COc1cc(-c2csc(NC(=O)Nc3cc(Cl)cc(Cl)c3)n2)cc(OC)c1OC")
3.16
>>> obs_value("CC(=O)c1nc2ccccc2n1CC(=O)c1cccc(Cl)c1")
99.7
>>> obs_value("CC#Cc1nc(Nc2cc(C)[nH]n2)c2ccccc2n1")
21.2
>>> obs_value("CCN(CC)c1ccc(/C=C/C=C2\\NC(=O)NC2=O)cc1")
64.2

I'm hoping you can list TGI for every compound here, please.
1. COc1c(B(O)O)cc(F)cc1-c1nc2ccc3[nH]ncc3c2c2c1CCCC2
2. Brc1ccc2c(-c3csc(-c4c[nH]c5ccccc45)n3)c[nH]c2c1

Result:
1: 9.43; 2: 27.5

I'm hoping you can list TGI for every compound here, please.
1. c1ccc(CN2CCN3CCN(CC2)CCN(Cc2ccccc2)CC3)cc1
2. Cn1cccc1/C=C/c1cc(Br)c(/C=C/c2cccn2C)cc1Br

Result:
1. 23.5
2. 45.3

* * *

- Tested on: DMS 273 small cell lung
- assay-notes: NCI tumour cell line growth inhibition, 48 h
For each entry below, report its TGI value.

>>> obs_value("CN1C/C(=C\\C=C\\c2ccccc2)C(=O)/C(=C/C=C/c2ccccc2)C1")
"> 100 µM"

I'm hoping you can list TGI for every compound here, please.
1. COC(=O)C(NC(=O)c1ccccc1)C(c1ccc(Cl)cc1)P(=O)(OC)OC (configuration not stated)
2. O=C1c2ccccc2C(=O)c2[nH]c(Cc3ccc(F)cc3)nc21
3. CCN(CC)CCNC(=O)c1cccc2nc3ccccc3nc12
4. CCCCCCCCCCC(C)CCCCCCC(=O)O (configuration not stated)
5. CCc1cccc(C)c1NC(=O)CC1C(=O)Nc2ccccc2S1(=O)=O (configuration not stated)
6. CCCCNC(=O)/N=C/c1c(O)c2ccccc2oc1=O
7. CC1(C)CC(N(C(=O)/C=C/c2ccc([N+](=O)[O-])o2)C2CCCCC2)CC(C)(C)N1

Result:
1: > 100 µM; 2: 35.5 µM; 3: > 100 µM; 4: > 100 µM; 5: 25 µM; 6: > 100 µM; 7: 18 µM

* * *

For each entry below, report its TGI value.
- Tested on: DMS 114 small cell lung
- assay-notes: NCI tumour cell line growth inhibition, 48 h

Study these solved cases before continuing.
>>> obs_value("CC(=O)N/C(=C\\c1ccc(Cc2nc3c([nH]2)C(=O)c2ccccc2C3=O)cc1)c1nc2c([nH]1)C(=O)c1ccccc1C2=O")
"> 100 µM"
>>> obs_value("O=C(CC/C(CC(=O)c1ccc(Br)cc1)=N\\O)Nc1ccc(Cl)c(Cl)c1")
"> 100 µM"
>>> obs_value("COc1ccc2c(c1)OC[C@@H]1c3cc(O)c(OCc4ccccc4)cc3O[C@H]21")
"82.6 µM"
>>> obs_value("COc1ccc(Sc2ccccc2N)cc1")
"> 100 µM"
>>> obs_value("C/C=N\\N1C(=O)c2ccccc2C1=O")
"> 100 µM"
>>> obs_value("C/C=C(/C)C(=O)O[C@H]1[C@H](O)CC(c2ccc3c(c2O)C(O)=C2C(=O)C4(OC)C(O)=C(C(N)=O)C(=O)[C@H](CC(=O)c5ccccc5O)C4CC2[C@@]3(C)OC)O[C@@H]1C (stereo partly drawn)")
"0.0292 µM"

I'm hoping you can list TGI for every compound here, please.
1. CN1C/C(=C\C=C\c2ccccc2)C(=O)/C(=C/C=C/c2ccccc2)C1
2. O=[N+]([O-])c1ccc(C=NC23CC4CC(CC(C4)C2)C3)cc1
3. OCCN1CCN(CC/C=C2/c3ccccc3Sc3ccc(Cl)cc32)CC1
4. O=C1NCCS(=O)(=O)N2CCC[C@@H]12
5. COc1ccc(N2C(=O)C3c4[nH]c5ccccc5c4C4CCCCC4C3C2=O)cc1 (stereo not drawn)

Result:
1. > 100 µM
2. > 100 µM
3. 30.5 µM
4. > 100 µM
5. > 100 µM

I'm hoping you can list TGI for every compound here, please.
1. CN(C)/N=N/c1nc[nH]c1C(N)=O
2. NNC(=O)C(=O)N/N=C(\CCC(=O)Nc1ccc(Cl)cc1)Cc1nc2ccccc2s1
3. O=NN(CCCl)C(=O)NC1CCC(CC2CCC(NC(=O)N(CCCl)N=O)CC2)CC1 (stereo not drawn)
4. O=C1/C(=C/c2ccc(Br)cc2)CCC/C1=C\c1ccc(Br)cc1
5. CC1(C)CC(N(C(=O)/C=C/c2ccc([N+](=O)[O-])o2)C2CCCCC2)CC(C)(C)N1
6. CCCCCCCCCCC(C)CCCCCCC(=O)O (stereo not drawn)
7. Cn1c(=O)c2/c(n(C)c1=O)=N\C=c1\c(=O)n(C)c(=O)n(C)\c1=N\C=2

Result:
["96.8 µM", "54.8 µM", "> 55.1 µM", "38.7 µM", "6.87 µM", "> 100 µM", "> 100 µM"]
